System: HepG2-A16-CD81EGFP cells
Conditions: HepG2; the header list (r10) describes it as the 1 µM dose, averaged response (percent)
# Average HepG2 3 µM response( %) per entry
The reply should be a number in %, with the unit left off.

// known answers, use as guide
- molecule: "OC(CNCCNc1ncccc1C(F)(F)F)Cn1ccc2ccccc21 (stereo not drawn) [MLS000833573]"
  Average HepG2 3 µM response( %): 101
- molecule: "O=C(Nc1ncccc1O)c1ccc(NS(=O)(=O)c2ccc3[nH]c(=O)[nH]c3c2)cc1 [MLS001138628]"
  Average HepG2 3 µM response( %): 105
- molecule: "O=C1C(Nc2ccccc2)=C/C(=N\\S(=O)(=O)c2cccs2)c2ccccc21 [MLS000374486]"
  Average HepG2 3 µM response( %): 101
- molecule: "Cc1ccc(NC(=O)CCS(=O)(=O)c2cc(Br)cc3c2N(C(=O)C2CC2)CC3)cc1 [NCGC00107230]"
  Average HepG2 3 µM response( %): 99
- molecule: "Cc1ccc(-n2c(C)cc(C(=O)OCC(=O)N(C)C3CCS(=O)(=O)C3)c2C)cc1 (stereo not drawn) [MLS000098265]"
  Average HepG2 3 µM response( %): 101

--- query ---
Please indicate Average HepG2 3 µM response( %) recorded for Oc1cc2c(cc1CN1CCN(c3ccccc3)CC1)CCC2 [MLS000058156]
102

###

System: P. falciparum Dd2 Cytb G131S
Experiment: SYBR Green ABS proliferation assay, NCGC00374598 selected clone C11
Format: cell-based, Plasmodium falciparum
Details: Plasmodium falciparum, DD2, cytochrome b mutant line, second value triple, c6; […]; read-out: log AC50, mean (converted)
measured-endpoint: log10 of AC50 (log10 of the value in µM)
Hey, these are logged values: log10 of AC50, µM being the unit before logging.

- compound: "CC(C)c1nc2c(c(-c3ccc(O)cc3)n1)CCN(Cc1ccc(OC(F)(F)F)cc1)CC2 [NCGC00480325-01]"
  log10 of AC50: 0.73
- compound: "CN(C)c1nc2c(c(=O)[nH]1)CCN(Cc1ccccc1Br)CC2 [NCGC00440591-01]"
  log10 of AC50: 0.84
- compound: "COc1ccc(-c2nc(C(C)C)nc3c2CCN(S(=O)(=O)c2cccc(C(F)(F)F)c2)CC3)cc1 [NCGC00479522-01]"
  log10 of AC50: 1.04
- compound: "O=c1[nH]c(N2CCOCC2)nc2c1CCN(Cc1ccccc1Br)CC2 [NCGC00440625-01]"
  log10 of AC50: 0.81
- compound: "CCCN1C(Cc2ccccc2)=N[S+](=O)([O-])c2cc(NC(=O)c3cccs3)ccc21 [NCGC00532337-01]"
  log10 of AC50: 0.48

Please indicate log10 of AC50 recorded for CCCN1C(CC(C)C)=N[S+](=O)([O-])c2cc(NC(=O)c3cccc(OC)c3)ccc21 [NCGC00531773-01]
0.55

Please indicate log10 of AC50 recorded for COc1ccc(CN2CCc3nc(C(C)C)nc(-c4ccc(O)cc4)c3CC2)cc1 [NCGC00480318-01]
0.71

Please indicate log10 of AC50 recorded for CCCN1C(CC2CCCCC2)=N[S+](=O)([O-])c2cc(NC(=O)c3cccs3)ccc21 [NCGC00532404-01]
-0.02

###

System: HepG2-A16-CD81EGFP cells
Details: HepG2, 1 µM compound treatment (10 mM stocks), replicate 2, normalized, average of 2 wells
measured-endpoint: HepG2 1uM growth rep2 (%)
The reply should be a number in %, with the unit left off.

// known answers, use as guide
- molecule: "Cc1nn(-c2ccccc2)c(C)c1/C=N/Nc1nc2ccccc2[nH]1 [MLS000332160-01]"
  readout-number: 90
- molecule: "Cc1ccc(C)c2sc(N3CCN(C(=O)c4ccc([N+](=O)[O-])o4)CC3)nc12 [MLS001234268-01]"
  readout-number: 96
- molecule: "Cc1ccc(-c2nn(-c3ccccc3)c3[nH]c(=O)c(CNCc4ccccc4)cc23)cc1 [MLS000067457-01]"
  readout-number: 94

Please indicate HepG2 1uM growth rep2 recorded for COc1ccc2[nH]c(C)c(CCN(Cc3cccs3)C(S)=Nc3ccccc3)c2c1 [MLS000529828-01]
90

Please indicate HepG2 1uM growth rep2 recorded for O=C(CCl)Nc1ccc(Oc2cnc3ccccc3n2)cc1 [MLS000327546-01]
86

Please indicate HepG2 1uM growth rep2 recorded for Cc1ccc(-c2cc(C(=O)Nc3ccc(S(=O)(=O)N4CC(C)OC(C)C4)cc3)[nH]n2)c(O)c1 (centres unmarked) [MLS000779230-01]
100

Please indicate HepG2 1uM growth rep2 recorded for COc1cccc(C2C3=C(N=c4sc(=Cc5ccccc5O)c(=O)n42)c2ccccc2CC3)c1OC (centres unmarked) [MLS000580951-01]
93

Please indicate HepG2 1uM growth rep2 recorded for Clc1ccc2c(N/N=C/c3cccc(Br)c3)ccnc2c1 [MLS000336198-01]
80

###

Test system: Plasmodium falciparum Dd2 asexual blood stage parasites
Test: microbe, parasite or virus in culture
Design: species or system Plasmodium falciparum Dd2 in human erythrocytes; single determination (one 11-point concentration-response curve)
Details: Plasmodium falciparum, DD2, Erythrocyte, 72 h; read-out: AC50
Categorized via AC50: I: < 3 µM; II: ≥ 3 µM and < 7 µM; III: ≥ 7 µM

Completed entries (count: 3):
- compound: "CCOC(=O)c1sc(NC(=O)C(C)Sc2nc(-c3ccccc3)cc(C(F)(F)F)n2)c(C(=O)OC)c1C (stereo not shown)"
  assay-target: "Plasmodium falciparum Dd2 asexual blood stage parasites"
  assigned-label: "I"
- compound: "O=C1NC2(CCN(C(=O)c3ccc(C(F)(F)F)cc3)CC2)COc2ccccc21"
  assay-target: "Plasmodium falciparum Dd2 asexual blood stage parasites"
  assigned-label: "III"
- compound: "COc1ccc(C(C(=O)Nc2ccc(C(C)C)cc2)N(Cc2ccco2)C(=O)CC2NC(=O)NC2=O)cc1 (stereo not shown)"
  assay-target: "Plasmodium falciparum Dd2 asexual blood stage parasites"
  assigned-label: "II"

State the class of the compound shown: "CCOC(=O)c1[nH]c(C)c(CCC(=O)N2CCN(c3cc(C)ccc3C)CC2)c1C"
I

State the class of the compound shown: "O=C(c1ccc([N+](=O)[O-])o1)N1CCN(c2nc3c(Cl)cccc3s2)CC1"
II

State the class of the compound shown: "CCOC(=O)c1ccccc1NC(=O)c1cn(CC(C)C)c(=O)c2cc(OC)c(OC)cc12"
III

State the class of the compound shown: "CC1=C[C@@H](CNC(=O)COc2ccccc2)[C@H](C(C)C)C[C@H]1Cc1nnc(-c2cncn2C)o1"
III

State the class of the compound shown: "CC(=O)c1ccc(N2CCN(c3nc4c([S+](=O)([O-])c5ccccc5)nnn4c4ccc(Cl)cc34)CC2)cc1"
II

###

Tested on: P. falciparum Dd2 Cytb V259L
Assay: SYBR Green ABS proliferation assay, NCGC00473217 selected clone F06
Assay type: cell-based, Plasmodium falciparum
Details: Plasmodium falciparum, DD2, […]; averaged from three independent replicates; top concentration 29 µM; read-out: Average AC50 (Log[M]), NCGC00473217 clone F06 (Cytb V259L) (converted)
# AC50 per entry
The reply should be a number in M, with the unit left off.

- smi: "CCCN1C(CC(C)C)=N[S+](=O)([O-])c2cc([N+](=O)[O-])ccc21"
  AC50 (M): "1.59e-05"
- smi: "CCCN1C(CC(C)C)=N[S+](=O)([O-])c2cc(NC(=O)c3ccc(F)cc3)ccc21"
  AC50 (M): "5.64e-07"
- smi: "CCCN1C(CC(C)C)=N[S+](=O)([O-])c2cc(NC(=O)c3ccno3)ccc21"
  AC50 (M): "3.17e-06"
- smi: "CCCN1C(CC(C)C)=N[S+](=O)([O-])c2cc(N[S+](=O)([O-])c3ccc(Cl)s3)ccc21"
  AC50 (M): "7.1e-07"
- smi: "CCCN1C(CC(C)C)=N[S+](=O)([O-])c2cc(NC(=O)c3c(Cl)cnn3C)ccc21"
  AC50 (M): "8.61e-06"

State AC50 (P. falciparum Dd2 Cytb V259L) of "CCCN1C(CC(C)C)=N[S+](=O)([O-])c2cc(NC(=O)c3nccs3)ccc21" .
1.31e-05

State AC50 (P. falciparum Dd2 Cytb V259L) of "CCCN1C(CC(C)C)=N[S+](=O)([O-])c2cc(NC(=O)c3ncco3)ccc21" .
9.66e-06

###

Assay: in vitro
Conditions: human, hepg2-a16-cd81egfp cells, % viability
measured-endpoint: viability at 3 µM (%)
The reply should be a number in %, with the unit left off.

// known answers, use as guide
- molecule: "O=c1c2ccccc2nc(N/N=C/c2c(O)ccc3ccccc23)n1O [MLS000551780]"
  measured-endpoint: "viability at 3 µM"
  readout-number: 34.1
- molecule: "C=C(C)COc1ccc(-c2n[nH]cc2-c2ccc(OC)c(OC)c2)c(O)c1 [MLS000084580]"
  measured-endpoint: "viability at 3 µM"
  readout-number: 42.4
- molecule: "O=C(NCc1ccccc1)c1onc(CSc2nc3ccccc3[nH]2)c1C(=O)NCc1ccccc1 [MLS000561090]"
  measured-endpoint: "viability at 3 µM"
  readout-number: 105
- molecule: "COc1cc(Cl)c(NC2=CC(=O)C(=O)c3ccccc32)c(OC)c1 [MLS001360325]"
  measured-endpoint: "viability at 3 µM"
  readout-number: 65.1
- molecule: "COc1ccc2nc(N3CCN(C(=O)c4ccc([N+](=O)[O-])o4)CC3)sc2c1 [MLS001234236]"
  measured-endpoint: "viability at 3 µM"
  readout-number: 89.3

Please indicate viability at 3 µM recorded for CN(C)CCCn1cnc2c(c1=N)C(c1ccccc1)c1ccc3ccccc3c1O2 (centres unmarked) [MLS001216375]
106

Please indicate viability at 3 µM recorded for O=C(Nc1ccc(S(=O)(=O)N2CCOCC2)cc1)c1cc(-c2cc(Cl)ccc2O)n[nH]1 [MLS000778989]
73.1

Please indicate viability at 3 µM recorded for O[C@@H]1[C@@H](O)C=C2CCN3Cc4cc5c(cc4[C@H]1C23)OCO5 (some centres unmarked) [MLS002153955]
77.4
